// data source = PubChem BioAssay

- ASSAY COMMENT: small-molecule binders of probe aNOTCH3, primary screen, biochemical, small-molecule microarray, 635/667 nm fluorescence (AID 1120);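 also: probe is a biotin-tagged antibody raised against NOTCH3 rather than NOTCH3 protein; score merges spot fluorescence near 667 nm with spot signal to noise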
- CONDITION SET: higher = more signal
ASSAY ENDPOINT: composite z-score
Just the number, please.

O=C1O[C@@H](c2ccccc2)[C@@H](c2ccccc2)N2[C@@H](c3ccc(OCCO)cc3)[C@]3(C(=O)Nc4ccccc43)[C@@H](C(=O)Nc3nc4ccccc4s3)[C@H]12 :: 0.372

Entry under test: COC(=O)c1c(CC[C@@H](CO)NC(=O)N[C@@H](Cc2ccccc2)Cn2cc(C3(O)CCCCC3)nn2)oc(C(C)=O)c1C(=O)OC . Its composite z-score was 0.0893

Entry under test: CS(=O)(=O)CCOC(=O)C1=CC(CCCO)=CC(c2cccs2)N(Cc2cc3c(cc2Br)OCO3)C=C1C(=O)OCCS(C)(=O)=O (configuration not stated) . Its composite z-score was 0.183

Entry under test: CC(C)c1ccc(NN2C(C(O)c3ccc(N(C)C)cc3)C=CC3C(=O)N(c4ccccc4)C(=O)C32)cc1 (configuration not stated) . Its composite z-score was 0.432

Entry under test: CCC[C@@H]1C=C(C(=O)O)[C@H](c2ccc(C)cc2)N1S(=O)(=O)c1ccc(C)cc1 . Its composite z-score was 0.195

Entry under test: C=CCNC(=O)[C@@H]1[C@H]2C(=O)O[C@H](c3ccccc3)[C@H](c3ccccc3)N2[C@H](c2ccccc2OCCO)[C@@]12C(=O)Nc1ccc(C#CC3=CCCCC3)cc12 . Its composite z-score was 0.0105

Entry under test: CN1C=C(C(=O)OCCS(C)(=O)=O)C(C(=O)OCCS(C)(=O)=O)=CC(CCCO)=CC1C1CC1 (configuration not stated) . Its composite z-score was -0.0613

* * *

Quick list: composite z-score per entry.
- ASSAY COMMENT: small-molecule binders of probe aNOTCH3, primary screen, biochemical, small-molecule microarray, 635/667 nm fluorescence (AID 1120);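 also: probe is a biotin-tagged antibody raised against NOTCH3 rather than NOTCH3 protein; score merges spot fluorescence near 667 nm with spot signal to noise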
- CONDITION SET: higher = more signal
Just the number, please.

Recorded results for 10 compounds are shown here.
O=C1N(CCS(=O)(=O)c2ccccc2)Cc2ccccc2[C@H]2OC(c3ccc(OCCCO)cc3)=N[C@@]12CCS(=O)(=O)c1ccccc1 :: -0.0247
CC1CC/C=C\[C@H]2OC34C=CCN(Cc5ccccc5)C(=O)[C@H]3N(CCCCCO)C(=O)[C@@H]4C2C(=O)O1 (stereo not given in full) :: -0.213
COc1ccc([Si](C)(C)[C@H]2[C@H](CCn3cc([C@H](O)c4ccccc4)nn3)O[C@@]3(C(=O)N(Cc4cccc(N5CCC5=O)c4)c4ccccc43)[C@@H]2C)cc1 :: -0.219
CCCCC=C[C@@H](NC(=O)c1cccs1)c1ccccc1 :: 0.0435
CCCCC=C[C@@H](NC(=O)c1ccc(C(=O)OC)cc1)c1ccccc1 :: 0.313
N#Cc1ccc(NN2C(C(O)c3ccc([N+](=O)[O-])cc3)C=CC3C(=O)N(c4ccccc4)C(=O)C32)cc1 (stereo not given) :: 0.0847
C=CCNC(=O)[C@H]1[C@@H]2C(=O)O[C@@H](c3ccccc3)[C@@H](c3ccccc3)N2[C@@H](c2ccc(O)cc2)[C@]12C(=O)N(C(=O)OCCOC)c1ccc(C#CCCO)cc12 :: -0.155
COc1ccc(CCN2C(=O)[C@@]3(Cc4ccccc42)c2ccccc2C(=O)N(Cc2ccccc2Cl)[C@H]3c2ccc(CO)cc2)cc1 :: -0.125
C=CC(=C)C1=CCO[C@@H]1[C@H]1CCCN1S(=O)(=O)c1ccccc1[N+](=O)[O-] :: 0.117
COc1ccc(CCNC(=O)[C@@]2(Sc3ccc(C)cc3)CC(=O)N(Cc3ccccc3Cl)[C@@H]2c2ccc(CO)cc2I)cc1 :: -0.177

Entry under test: C=C[C@@H](COC(C)=O)N(Cc1ccc([N+](=O)[O-])cc1)S(=O)(=O)c1ccc(Br)cc1 . Its composite z-score was -0.0647

Entry under test: CC(C)CNC(=O)[C@@H]1c2ccccc2C(=O)N(Cc2cc(C(F)(F)F)cc(C(F)(F)F)c2)[C@H]1c1ccc(CO)cc1 . Its composite z-score was 0.0596

Entry under test: C=CCC(OC(C)=O)[C@@H]1[C@@H](N(Cc2ccc(-c3ccccc3)cc2)C(=O)Cc2ccc(OC)cc2)c2cc(OCCCO)ccc2N1C(=O)c1ccc2ccccc2n1 (stereo not given in full) . Its composite z-score was 0.0522

Entry under test: [N-]=[N+]=Nc1ccccc1C[C@]1(C(=O)NCCN2CCOCC2)N=C(c2ccc(OCCCO)cc2)O[C@H]1c1ccccc1 . Its composite z-score was 0.194
